system: glucosylceramide synthase (GCS) (Homo sapiens (Human))
experimental details: Evaluation of inhibitory activities against GCS (enzyme reaction with A549 cell lysate, NBD C6-ceramide, HPLC fluorescence)
details: GCS activity in A549 cell lysate, 37° C. for 90 minutes
Here the recorded IC50 is given for each entry.
measurement label: IC50 (nM)

{"compound": "O=C(NC1c2cc(-c3ccc(OC(F)F)cc3)ccc2CCC12CC2)O[C@@H]1CN2CCC1CC2 (some centres unmarked) [Example 184]", "system": "glucosylceramide synthase (GCS) (Homo sapiens (Human))", "measurement label": "IC50", "observed measurement": 7.52}
{"compound": "O=C(NC1c2ccc(-c3cccc(OC(F)(F)F)c3)cc2CCC12CC2)O[C@@H]1CN2CCC1CC2 (some centres unmarked) [Example 193]", "system": "glucosylceramide synthase (GCS) (Homo sapiens (Human))", "measurement label": "IC50", "observed measurement": 20.9}
{"compound": "CCCc1ccc(-c2ccc3c(c2)CCC2(CC2)C3NC(=O)O[C@@H]2CN3CCC2CC3)cc1 (some centres unmarked) [Example 222]", "system": "glucosylceramide synthase (GCS) (Homo sapiens (Human))", "measurement label": "IC50", "observed measurement": 0.75}
{"compound": "O=C(NC1c2cc(-c3cccc(C(F)(F)F)c3)ccc2CCC12CC2)O[C@@H]1CN2CCC1CC2 (some centres unmarked) [Example 177]", "system": "glucosylceramide synthase (GCS) (Homo sapiens (Human))", "measurement label": "IC50", "observed measurement": 23.5}
{"compound": "CC1(C)CCc2cc(-c3cccc(C(F)(F)F)c3)ccc2C1NC(=O)O[C@@H]1CN2CCC1CC2 (some centres unmarked) [Example 92]", "system": "glucosylceramide synthase (GCS) (Homo sapiens (Human))", "measurement label": "IC50", "observed measurement": 1.04}
{"compound": "O=C(NC1c2ccc(-c3cccc(Cl)c3)cc2CCC12CC2)O[C@@H]1CN2CCC1CC2 (some centres unmarked) [Example 191]", "system": "glucosylceramide synthase (GCS) (Homo sapiens (Human))", "measurement label": "IC50", "observed measurement": 9.9}
{"compound": "COCOc1cccc(-c2ccc3c(c2)CCCC3NC(=O)O[C@@H]2CN3CCC2CC3)c1 (some centres unmarked) [Example 28]", "system": "glucosylceramide synthase (GCS) (Homo sapiens (Human))", "measurement label": "IC50", "observed measurement": 1.33}
{"compound": "COCOc1ccc(-c2ccc3c(c2)CCCC3NC(=O)O[C@@H]2CN3CCC2CC3)cc1 (some centres unmarked) [Example 26]", "system": "glucosylceramide synthase (GCS) (Homo sapiens (Human))", "measurement label": "IC50", "observed measurement": 6.61}

----------
system: glucosylceramide synthase (GCS) (Homo sapiens (Human), UniProt Q16739)
Sequence (Q16739 whole entry, looked up): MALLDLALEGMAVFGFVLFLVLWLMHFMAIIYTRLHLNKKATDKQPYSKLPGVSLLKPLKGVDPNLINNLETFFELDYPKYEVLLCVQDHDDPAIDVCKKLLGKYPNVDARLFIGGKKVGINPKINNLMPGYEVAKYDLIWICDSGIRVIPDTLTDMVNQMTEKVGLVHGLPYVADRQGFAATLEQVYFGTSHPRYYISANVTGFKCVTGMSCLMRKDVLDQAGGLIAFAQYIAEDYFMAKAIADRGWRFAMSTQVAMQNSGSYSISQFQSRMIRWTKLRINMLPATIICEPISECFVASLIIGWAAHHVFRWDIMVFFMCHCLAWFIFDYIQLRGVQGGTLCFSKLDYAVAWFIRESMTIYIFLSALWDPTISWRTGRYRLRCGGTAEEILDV
experimental details: Evaluation of inhibitory activities against GCS (enzyme reaction with A549 cell lysate, NBD C6-ceramide, HPLC fluorescence)
details: GCS activity in A549 cell lysate, 37° C. for 90 minutes
// NB: equality with 4 nM counts as condition not met; only IC50 strictly below is condition met

{"molecule": "CC(C)Oc1ccc(-c2ccc3c(c2)CCC2(CC2)C3NC(=O)O[C@@H]2CN3CCC2CC3)cc1 (stereo partly shown) [Example 219]", "discrete label": "condition met"}
{"molecule": "CCc1ccccc1-c1ccc2c(c1)CCCC2NC(=O)O[C@@H]1CN2CCC1CC2 (stereo partly shown) [Example 41]", "discrete label": "condition not met"}
{"molecule": "COCOc1ccc(-c2ccc3c(c2)CCC(C)(C)C3NC(=O)O[C@@H]2CN3CCC2CC3)cc1 (stereo partly shown) [Example 113]", "discrete label": "condition met"}
{"molecule": "COc1cccc(-c2ccc3c(c2)CCC(C)(C)C3NC(=O)O[C@@H]2CN3CCC2CC3)c1 (stereo partly shown) [Example 121]", "discrete label": "condition not met"}
{"molecule": "CCc1ccc(-c2ccc3c(c2)CCC2(CC2)C3NC(=O)O[C@@H]2CN3CCC2CC3)cc1 (stereo partly shown) [Example 221]", "discrete label": "condition met"}
{"molecule": "COc1cccc(-c2ccc3c(c2)CCCC3NC(=O)O[C@@H]2CN3CCC2CC3)c1 (stereo partly shown) [Example 47]", "discrete label": "condition met"}
{"molecule": "O=C(NC1c2cc(-c3cccc(F)c3)ccc2CCC12CC2)O[C@@H]1CN2CCC1CC2 (stereo partly shown) [Example 175]", "discrete label": "condition not met"}
{"molecule": "O=C(NC1c2cc(-c3ccc(C(F)(F)F)cc3)ccc2CCC12CC2)O[C@@H]1CN2CCC1CC2 (stereo partly shown) [Example 173]", "discrete label": "condition met"}
{"molecule": "CC1(C)CCc2ccc(-c3ccc(C(F)(F)F)cc3)cc2C1NC(=O)O[C@@H]1CN2CCC1CC2 (stereo partly shown) [Example 153]", "discrete label": "condition not met"}
{"molecule": "COCOc1cccc(-c2ccc3c(c2)CCC(C)(C)C3NC(=O)O[C@@H]2CN3CCC2CC3)c1 (stereo partly shown) [Example 114]", "discrete label": "condition met"}
{"molecule": "O=C(NC1CCCc2ccc(-c3ccncc3)cc21)O[C@@H]1CN2CCC1CC2 (stereo partly shown) [Example 72]", "discrete label": "condition not met"}
{"molecule": "CC1(C)CCc2ccc(-c3ccccc3Cl)cc2C1NC(=O)O[C@@H]1CN2CCC1CC2 (stereo partly shown) [Example 160]", "discrete label": "condition not met"}
{"molecule": "COc1ccc(OC)c(-c2ccc3c(c2)CCC(C)(C)C3NC(=O)O[C@@H]2CN3CCC2CC3)c1 (stereo partly shown) [Example 135]", "discrete label": "condition met"}
{"molecule": "CC(C)(C)c1ccc(-c2ccc3c(c2)CCCC3NC(=O)O[C@@H]2CN3CCC2CC3)cc1 (stereo partly shown) [Example 36]", "discrete label": "condition not met"}
{"molecule": "Cc1ccc(-c2ccc3c(c2)CCC(C)(C)C3NC(=O)O[C@@H]2CN3CCC2CC3)cc1 (stereo partly shown) [Example 98]", "discrete label": "condition met"}

----------
system: UniProtKB Q16739
experimental details: Evaluation of inhibitory activities against GCS (enzyme reaction with A549 cell lysate, NBD C6-ceramide, HPLC fluorescence)
details: GCS activity in A549 cell lysate, 37° C. for 90 minutes
pIC50: −log10 of the molar value.
measurement label: pIC50

{"compound": "O=C(NC1CCCc2ccc(-c3cccc(C(F)(F)F)c3)cc21)O[C@@H]1CN2CCC1CC2 (stereo partly shown)", "measurement label": "pIC50", "observed measurement": 6.97}
{"compound": "COCCOc1cccc(-c2ccc3c(c2)CCCC3NC(=O)O[C@@H]2CN3CCC2CC3)c1 (stereo partly shown)", "measurement label": "pIC50", "observed measurement": 8.60}
{"compound": "COCCOc1ccccc1-c1ccc2c(c1)CCC(C)(C)C2NC(=O)O[C@@H]1CN2CCC1CC2 (stereo partly shown)", "measurement label": "pIC50", "observed measurement": 8.43}
{"compound": "O=C(NC1CCCc2cc(-c3ccc(F)c(F)c3)ccc21)O[C@@H]1CN2CCC1CC2 (stereo partly shown)", "measurement label": "pIC50", "observed measurement": 8.16}
{"compound": "CC(C)Oc1cccc(-c2ccc3c(c2)CCC2(CC2)C3NC(=O)O[C@@H]2CN3CCC2CC3)c1 (stereo partly shown)", "measurement label": "pIC50", "observed measurement": 7.67}
{"compound": "CCCCOc1ccc(-c2ccc3c(c2)CCC(C)(C)C3NC(=O)O[C@@H]2CN3CCC2CC3)cc1Cl (stereo partly shown)", "measurement label": "pIC50", "observed measurement": 8.84}
{"compound": "CC(C)Oc1cccc(-c2ccc3c(c2)CCC(C)(C)C3NC(=O)O[C@@H]2CN3CCC2CC3)c1 (stereo partly shown)", "measurement label": "pIC50", "observed measurement": 8.94}
{"compound": "O=C(NC1CCCc2cc(-c3ccc(F)c(F)c3F)ccc21)O[C@@H]1CN2CCC1CC2 (stereo partly shown)", "measurement label": "pIC50", "observed measurement": 8.15}
{"compound": "O=C(NC1CCCc2cc(-c3ccncc3F)ccc21)O[C@@H]1CN2CCC1CC2 (stereo partly shown)", "measurement label": "pIC50", "observed measurement": 7.46}
{"compound": "COc1cccc(-c2ccc3c(c2)C(NC(=O)O[C@@H]2CN4CCC2CC4)CCC3)c1 (stereo partly shown)", "measurement label": "pIC50", "observed measurement": 7.13}
{"compound": "COc1cc2c(cc1-c1ccc(OC(C)C)cc1)CCC(C)(C)C2NC(=O)O[C@@H]1CN2CCC1CC2 (stereo partly shown)", "measurement label": "pIC50", "observed measurement": 9.26}
{"compound": "CC1(C)CCc2ccc(-c3ccccc3OC(F)(F)F)cc2C1NC(=O)O[C@@H]1CN2CCC1CC2 (stereo partly shown)", "measurement label": "pIC50", "observed measurement": 7.98}
{"compound": "COc1cc(-c2ccc3c(c2)CCCC3NC(=O)O[C@@H]2CN3CCC2CC3)ccn1 (stereo partly shown)", "measurement label": "pIC50", "observed measurement": 8.03}
{"compound": "COCOc1ccc(-c2ccc3c(c2)C(NC(=O)O[C@@H]2CN4CCC2CC4)C(C)(C)CC3)cc1 (stereo partly shown)", "measurement label": "pIC50", "observed measurement": 7.75}
{"compound": "COc1cccc(-c2ccc3c(c2)CCC2(CC2)C3NC(=O)O[C@@H]2CN3CCC2CC3)c1 (stereo partly shown)", "measurement label": "pIC50", "observed measurement": 7.91}
{"compound": "COc1ccc(-c2ccc3c(c2)CCC(C)(C)C3NC(=O)O[C@@H]2CN3CCC2CC3)c(Cl)c1 (stereo partly shown)", "measurement label": "pIC50", "observed measurement": 9.01}
